# Protocol Notes: recombinant barcode read abundance after kanamycin selection (control-corrected) (log10(CPM+1)); higher = more efficient recombination; sequences stand for … in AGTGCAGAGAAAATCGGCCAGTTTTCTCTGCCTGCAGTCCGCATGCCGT…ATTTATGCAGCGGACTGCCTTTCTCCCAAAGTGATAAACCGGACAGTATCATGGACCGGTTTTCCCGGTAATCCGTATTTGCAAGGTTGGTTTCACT; site = the 11-nt target
recombinant barcode read abundance (log10) reference
Measured Quantity: recombinant barcode read abundance (log10)

>>> value_measured("ATGCTTTTCTGGGTTCTAACCTGTTGCCTAG [ATGCTTTCTAG_LTGcore_TC_RTGcore_CT] (site ATGCTTTCTAG) (LTG core: TC, RTG core: CT)")
0.439
>>> value_measured("CGCGCCCGTTGGGTTCTAACCTGTTGCGGAC [CGCGCCCCTCC_LTGcore_GT_RTGcore_GT] (site CGCGCCCCTCC) (LTG core: GT, RTG core: GT)")
0.421
>>> value_measured("CGCGCCCCTTGGGTTCTAACCTGTTGCGGTC [CGCGCCCCTCC_LTGcore_CT_RTGcore_GA] (site CGCGCCCCTCC) (LTG core: CT, RTG core: GA)")
0.041
